Examples of compounds with documented melting point follow.

// known answers, use as guide
[
  {
    "COMPOUND": "Cc1c(NC(=O)C(Cc2ccccc2)CC(F)(F)F)cnc2c(F)cccc12 (stereo not drawn)",
    "melting point": "165 to 167 °C"
  },
  {
    "COMPOUND": "COC(C)(Cc1ccccc1)C(=O)Nc1cnc2c(F)cccc2c1 (stereo not drawn)",
    "melting point": "107 to 109 °C"
  },
  {
    "COMPOUND": "CC(C)(C)C(Cc1ccccc1)C(=O)Nc1cnc2c(F)cccc2c1 (stereo not drawn)",
    "melting point": "212 to 215 °C"
  },
  {
    "COMPOUND": "C=C(C)C[C@](C)(Cc1ccccc1)C(=O)Nc1cnc2c(F)cccc2c1",
    "melting point": "133 to 135 °C"
  },
  {
    "COMPOUND": "C=C(Cl)CC(C)(Cc1ccccc1)C(=O)Nc1cnc2c(F)cccc2c1C (stereo not drawn)",
    "melting point": "124 to 126 °C"
  },
  {
    "COMPOUND": "CC1(C[C@](C)(Cc2ccccc2)C(=O)Nc2cnc3c(F)cccc3c2)CC1",
    "melting point": "62 to 64 °C"
  },
  {
    "COMPOUND": "C/C=C\\CC(C)(Cc1ccccc1)C(=O)Nc1cnc2c(F)cccc2c1 (stereo not drawn)",
    "melting point": "128 to 130 °C"
  },
  {
    "COMPOUND": "Cc1c(NC(=O)C(C)(Cc2ccccc2)CC(C)C)cnc2c(Cl)cccc12 (stereo not drawn)",
    "melting point": "124 to 126 °C"
  }
]

--- query ---
Return value of melting point for input C=C(Cl)CC(Cc1ccccc1)C(=O)Nc1cnc2c(F)cccc2c1C (stereo not drawn) , no commentary.
53 to 58 °C
